# ASSAY_DETAILS: in vitro
# Type: in vitro ADME, human
# RUN_CONDITIONS: human liver microsomes, no NADPH, 1 h, compound 0.5 μM
# Lookup of reported Human Liver Microsomal Stability no NADPH, % remain 1 h keyed by entry
REPORTED_METRIC: Human Liver Microsomal Stability no NADPH, % remain 1 h (%)

| MOLECULE | UNIT_ABBREV | RESULT |
| --- | --- | --- |
| CC(=O)[C@H]1CC[C@H]2[C@@H]3CC[C@H]4C[C@](C)(OC(=O)C5CC5C(=O)O)CC[C@]4(C)[C@H]3CC[C@]12C (some centres unmarked) | % | 76 |
| CC(=O)[C@H]1CC[C@H]2[C@@H]3CC[C@H]4C[C@](C)(CC(=O)COC(=O)NCCN(C)C)CC[C@]4(C)[C@H]3CC[C@]12C | % | 99.7 |
| CC(=O)[C@H]1CC[C@H]2[C@@H]3CC[C@H]4C[C@](C)(OC(=O)CCCCN)CC[C@]4(C)[C@H]3CC[C@]12C | % | 99 |
| CC(=O)[C@H]1CC[C@H]2[C@@H]3CC[C@H]4C[C@](C)(OC(=O)COC(=O)C(C)(C)N5CCOCC5)CC[C@]4(C)[C@H]3CC[C@]12C | % | 98 |
| CC(=O)[C@H]1CC[C@H]2[C@@H]3CC[C@H]4C[C@](C)(OC(=O)CNC(C)(C)COC(=O)CN5CCOCC5)CC[C@]4(C)[C@H]3CC[C@]12C | % | 0.5 |
| CC(=O)[C@H]1CC[C@H]2[C@@H]3CC[C@H]4C[C@](C)(OC(=O)CNC(C)(C)C(=O)O)CC[C@]4(C)[C@H]3CC[C@]12C | % | 8 |
| CC(=O)[C@H]1CC[C@H]2[C@@H]3CC[C@H]4C[C@](C)(OC(=O)CC[C@H](N)C(=O)O)CC[C@]4(C)[C@H]3CC[C@]12C | % | 99 |
| CC(=O)[C@H]1CC[C@H]2[C@@H]3CC[C@H]4C[C@](C)(OC(=O)COC(=O)CNC(=O)[C@@H](N)C(C)C)CC[C@]4(C)[C@H]3CC[C@]12C | % | 79.5 |
| CC(=O)[C@H]1CC[C@H]2[C@@H]3CC[C@H]4C[C@](C)(OC(=O)CNCC(C)(C)O)CC[C@]4(C)[C@H]3CC[C@]12C | % | 99 |
| CNC(C)(C)C(=O)OCC(=O)O[C@]1(C)CC[C@@]2(C)[C@@H](CC[C@@H]3[C@@H]2CC[C@]2(C)[C@@H](C(C)=O)CC[C@@H]32)C1 | % | 27 |
| CC(=O)[C@H]1CC[C@H]2[C@@H]3CC[C@H]4C[C@](C)(OC(=O)CSC(C)(C)C(=O)NCCN(C)C)CC[C@]4(C)[C@H]3CC[C@]12C | % | 99 |
| CC(=O)[C@H]1CC[C@H]2[C@@H]3CC[C@H]4C[C@](C)(OC(=O)CSC(C)(C)C(=O)O)CC[C@]4(C)[C@H]3CC[C@]12C | % | 98.8 |
| CC(=O)[C@H]1CC[C@H]2[C@@H]3CC[C@H]4C[C@](C)(OC(=O)CO)CC[C@]4(C)[C@H]3CC[C@]12C | % | 70 |
| CC(=O)[C@H]1CC[C@H]2[C@@H]3CC[C@H]4C[C@](C)(OC(=O)CN5CCC[C@H]5C(=O)OCc5ccccc5)CC[C@]4(C)[C@H]3CC[C@]12C | % | 20 |
| CC(=O)[C@H]1CC[C@H]2[C@@H]3CC[C@H]4C[C@](C)(OC(=O)CNCCO)CC[C@]4(C)[C@H]3CC[C@]12C | % | 99 |
| CC(=O)[C@H]1CC[C@H]2[C@@H]3CC[C@H]4C[C@](C)(OC(=O)COC(=O)CN(C)C)CC[C@]4(C)[C@H]3CC[C@]12C | % | 1.85 |
| CC(=O)[C@H]1CC[C@H]2[C@@H]3CC[C@H]4C[C@](C)(OC(=O)C[C@H](N)C(=O)O)CC[C@]4(C)[C@H]3CC[C@]12C | % | 82 |
| CC(=O)[C@H]1CC[C@H]2[C@@H]3CC[C@H]4C[C@](C)(OC(=O)CSC(C)(C)COC(=O)CN5CCOCC5)CC[C@]4(C)[C@H]3CC[C@]12C | % | 1 |
| CC(=O)[C@H]1CC[C@H]2[C@@H]3CC[C@H]4C[C@](C)(OC(=O)C5CC5C(=O)NCCN(C)C)CC[C@]4(C)[C@H]3CC[C@]12C (some centres unmarked) | % | 99 |
| CC(=O)[C@H]1CC[C@H]2[C@@H]3CC[C@H]4C[C@](C)(OC(=O)CN)CC[C@]4(C)[C@H]3CC[C@]12C | % | 82.6 |
